assayed.system: Factor X, P00742
Sequence (P00742 whole entry, looked up): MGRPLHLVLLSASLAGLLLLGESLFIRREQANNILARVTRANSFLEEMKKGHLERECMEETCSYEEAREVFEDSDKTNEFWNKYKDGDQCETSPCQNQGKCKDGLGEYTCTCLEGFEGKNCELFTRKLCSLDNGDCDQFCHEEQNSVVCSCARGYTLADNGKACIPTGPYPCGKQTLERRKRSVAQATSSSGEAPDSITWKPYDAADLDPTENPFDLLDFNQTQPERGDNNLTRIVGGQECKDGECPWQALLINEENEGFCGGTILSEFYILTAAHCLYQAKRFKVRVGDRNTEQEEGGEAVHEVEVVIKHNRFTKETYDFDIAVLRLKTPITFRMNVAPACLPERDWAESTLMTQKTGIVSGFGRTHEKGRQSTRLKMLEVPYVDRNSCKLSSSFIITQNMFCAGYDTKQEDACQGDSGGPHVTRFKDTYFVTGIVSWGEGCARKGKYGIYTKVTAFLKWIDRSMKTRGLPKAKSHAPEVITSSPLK
value.kind: % of WT kcat/KM (%)
All answers are understood in %, so give the number only.

protein	% of WT kcat/KM / %
FIXa-D104N/K106S/R318Y/R338E/R403E/E410N (mature FIX numbering) (protein) chain 1: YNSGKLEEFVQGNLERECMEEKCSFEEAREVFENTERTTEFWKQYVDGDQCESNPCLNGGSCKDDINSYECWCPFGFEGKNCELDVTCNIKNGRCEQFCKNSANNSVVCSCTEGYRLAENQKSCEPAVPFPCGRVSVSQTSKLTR chain 2: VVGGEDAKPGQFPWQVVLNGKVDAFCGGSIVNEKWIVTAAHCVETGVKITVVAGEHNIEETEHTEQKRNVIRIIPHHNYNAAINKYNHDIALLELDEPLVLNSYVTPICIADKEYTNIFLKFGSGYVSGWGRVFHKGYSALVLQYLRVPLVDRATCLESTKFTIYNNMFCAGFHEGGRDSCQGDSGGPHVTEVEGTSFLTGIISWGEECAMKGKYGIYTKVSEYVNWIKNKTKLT	377

Shift focus to the following entry.
Query block: So what does the record say about % of WT kcat/KM for FIXa K247N/N249S/N260S/R318Y/R338E/R403E/E410N (protein) chain 1: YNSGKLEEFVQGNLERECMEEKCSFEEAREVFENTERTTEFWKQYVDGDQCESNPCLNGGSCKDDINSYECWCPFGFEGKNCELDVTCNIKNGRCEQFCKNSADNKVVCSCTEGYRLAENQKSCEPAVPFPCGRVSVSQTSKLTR chain 2: VVGGEDAKPGQFPWQVVLNGKVDAFCGGSIVNEKWIVTAAHCVETGVKITVVAGEHNIEETEHTEQNRSVIRIIPHHNYSAAINKYNHDIALLELDEPLVLNSYVTPICIADKEYTNIFLKFGSGYVSGWGRVFHKGYSALVLQYLRVPLVDRATCLESTKFTIYNNMFCAGFHEGGRDSCQGDSGGPHVTEVEGTSFLTGIISWGEECAMKGKYGIYTKVSEYVNWIKNKTKLT ?
Result block: 145
